# experimentalSystem: T1, VEGFR-1-Fc (UniProt P17948 27-338)
# T1 construct: domain: first three Ig domains; expressed in Drosophila S2 cells, purified on Protein A sepharose; also called VEGFR-1-Fc fusion protein; not shown: Fc fragment from the Signal-pIgPlus vector
# T1 sequence (P17948 27-338): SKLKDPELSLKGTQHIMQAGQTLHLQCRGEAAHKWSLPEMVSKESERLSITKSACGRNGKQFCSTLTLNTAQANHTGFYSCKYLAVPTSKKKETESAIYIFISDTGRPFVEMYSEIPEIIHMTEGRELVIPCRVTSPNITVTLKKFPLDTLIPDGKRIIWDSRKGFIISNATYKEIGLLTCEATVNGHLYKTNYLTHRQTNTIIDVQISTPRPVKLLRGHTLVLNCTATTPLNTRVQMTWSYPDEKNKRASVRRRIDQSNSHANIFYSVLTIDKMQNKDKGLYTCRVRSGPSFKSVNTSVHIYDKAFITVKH
# measurementDescription: receptor-Fc IP
measurementKind: binding result

Below, 5 binders whose answers are already recorded.
Note to self: binding result recorded for 54-10 (ligand) AHYNTEILKSIDNEWRKTQCMPIETLVDIFQEFGVATNTFFKPSCVPLMRCGGCCNDEGLECMNTSTSYLSKTLFEITVPLSQGPKPVTISFLQHNKCECRPKKD was no binding

Note to self: binding result recorded for 51-1 (ligand) AHYNTEILKSIDNEWRKTQCMPIETLVDIFQEYPDEIEYIFKPSCVPLMRCGGCCNDEGLECVPTEESNITMQIMRIKPHQGQHIGEMSFLQHNKCECRPKKD was no binding

Note to self: binding result recorded for 72-3 (ligand) GQNHHEVVKSIDNEWRKTQCMPREVCIDVGKEFGVATNTFFKPPCVSVYRCGGCCNSEGLQCVPTEESNITMQIMRIKPHQGQHIGEMSFLQHNKCECRPKKD was no binding

Note to self: binding result recorded for 53-13 (ligand) AHYNTEILKSIDNEWRKTQCMPIETLVDIFQEYPDEIEYIFKPPCVSVYRCGGCCNDEGLECVPTEESNITMQIMRITVPLSQGPKPVTISFANHTSCRCMSKLD was no binding

Note to self: binding result recorded for 71-11 (ligand) GQNHHEVVKSIDNEWRKTQCMPREVCIDVGKEYPDEIEYIFKPSCVPLMRCGGCCNSEGLQCVPTEESNITMQIMRITVPLSQGPKPVTISFLQHNKCECRPKKD was no binding

Further cases:
Note to self: binding result recorded for 84-1 (ligand) AHYNTEILKFMDVYQRSYCHPIETLVDIFQEFGVATNTFFKPSCVPLMRCGGCCNDEGLECVPTEESNITMQIMRIKPHQGQHIGEMSFLQHNKCECRPKKD was binds

Note to self: binding result recorded for 51-6 (ligand) AHYNTEILKSIDNEWRKTQCMPIETLVDIFQEYPDEIEYIFKPSCVPLMRCGGCCNDEGLECMNTSTSYLSKTLFEIKPHQGQHIGEMSFANHTSCRCMSKLD was no binding

Note to self: binding result recorded for 44-2 (ligand) AHYNTEILKFMDVYQRSYCHPREVCIDVGKEFGVATNTFFKPSCVPLMRCGGCCNDEGLECMNTSTSYLSKTLFEIKPHQGQHIGEMSFLQHNKCECRPKKD was no binding
